Tested on: MALME-3M melanoma
Experiment: NCI tumour cell line growth inhibition, 48 h
Give measured TGI for each item. Keep answers brief.

Q. # query: TGI | item CCCCN(CCCC)c1cc(C(=O)CCCCCN)c2ccccc2n1 | system: MALME-3M melanoma
A. 4.16 µM

Q. Give the reported TGI for CNC(=S)NNC(=O)c1c(C)nc2sccn12 (system: MALME-3M melanoma).
A. > 100 µM

Q. // map CCOC(=O)C(C)OC(=O)c1ccc(C)cc1 (stereo unspecified) to recorded TGI (system: MALME-3M melanoma)
A. > 100 µM

Q. // fetch MALME-3M melanoma TGI for Cc1cc(=O)[nH]c(CNC(=O)c2cccc3ccccc23)n1
A. > 100 µM

Q. Report TGI for CCOc1ccc(/C=N/Nc2cc(C)nc3ccc(Cl)cc23)cc1 tested on MALME-3M melanoma.
A. 3.6 µM

Q. Give MALME-3M melanoma TGI for Oc1ccc(Cl)cc1Cc1cc(Cl)cc(Cc2cc(Cl)ccc2O)c1O
A. 5.56 µM

Q. Query the reported TGI for MALME-3M melanoma; item: c1ccc2c(c1)nnn1c3cnccc3nc21
A. > 100 µM

Q. Param readout = TGI; param system = MALME-3M melanoma; param query = CNC(=S)NNC1=NCCCN1 ; response: value
A. > 100 µM

Q. Recall the recorded TGI for Fc1ccc(C2(CCCN3CCc4[nH]c5cc(F)ccc5c4C3)OCCO2)cc1 with MALME-3M melanoma and state it.
A. 25.9 µM

Q. # get_value(readout= TGI, system= MALME-3M melanoma) for CSc1nc2nc(C)c(C)nc2c(=O)[nH]1
A. > 100 µM

Q. Report TGI for NC(=O)c1cccc(N)c1 tested on MALME-3M melanoma.
A. > 100 µM

* * *

Test system: COLO 205 colon
Assay: NCI tumour cell line growth inhibition, 48 h
MEASURED PROPERTY: TGI (µM)
Respond numerically; units are µM and should not be typed.

Q. Dear colleague, I am looking for the recorded TGI of the following molecule: CC(/C=C/C=C/C=C/C=C/C=C/C(O)=C1/C(=O)C(CCC(=O)O)N(C)C1=O)=C\C(C)C(OC1CC(O)C(O)C(C)O1)C(C)C (stereo not given)
A. 4.48

Q. Query: TGI; subject: CCN(CC)CC(O)CNc1ccc(NCC(O)CCl)c2c1C(=O)c1ccccc1C2=O (stereo not given)
A. 21.6

Q. Requested read-out: TGI. Entry: COc1cc(S(=O)(=O)N/N=C/C=C/c2ccccc2)c(OC)cc1NC(C)=O
A. 45.8

Q. Consider the molecule COC(=O)/C=C1/OC(c2ccc(Br)cc2)=C(Br)C1=O and give its measured TGI.
A. 4.12

* * *

Test system: MOLT-4 leukemia
Experiment: NCI tumour cell line growth inhibition, 48 h
MEASURED PROPERTY: TGI

Q. Which TGI is reported with MOLT-4 leukemia for this entry: O=[N+]([O-])c1nccn1CCCN=c1c2ccccc2n(O)c2ccccc12 ?
A. > 100 µM

Q. Param readout= TGI; system= MOLT-4 leukemia; entry= OCC1OC(n2ccc3cnccc32)CC1O (stereo not drawn) ; returns value.
A. > 100 µM

Q. Record CN(C)c1ccc(/C=C2\C[C@H]3[C@@H]4CCC5=CC(=O)CC[C@]5(C)[C@H]4CC[C@]3(C)C2=O)cc1 : what is its TGI with MOLT-4 leukemia?
A. > 100 µM

Q. Checklist item: TGI tested on MOLT-4 leukemia, entry COC(=N)C(C)C , value?
A. > 100 µM

Q. Request - read-out TGI | tested on MOLT-4 leukemia | molecule S=C1CNC(=S)CN1
A. > 100 µM

Q. Missing value: TGI, MOLT-4 leukemia, entry COc1cc(C2=Nc3c/c(=C\c4c(O)[nH]c5ccc(Cl)cc45)ccc3=N2)cc(OC)c1OC . Fill in?
A. 12.9 µM

Q. Form field - read-out: TGI; system: MOLT-4 leukemia; submitted item: O=C(O)c1cnccc1-c1cc(=O)[nH]n1-c1ccccc1
A. > 77.6 µM

Q. Notebook entry, MOLT-4 leukemia assay: TGI of CCc1ccc(/C(C#N)=C/C=C/c2ccccc2)cc1 = ?
A. > 83.9 µM

Q. Provide value of TGI for this record tested with MOLT-4 leukemia: COc1cccc(/C=N/[N-]C(N)=O)c1[O-].[Cu+2].[OH3+].c1cnc2c(c1)ccc1cccnc12
A. > 100 µM

Q. I'm curious: which TGI was measured for CSc1nc(C)cc(N(C)c2ccccc2)n1 tested on MOLT-4 leukemia?
A. > 100 µM

Q. Please provide the recorded TGI for C[C@@]12C[C@@H](c3ccccc3O1)N1CCSC1=N2 , tested on MOLT-4 leukemia.
A. > 100 µM

Q. Provide the documented TGI with MOLT-4 leukemia as the system for COC(=O)C1=C(O)C(C(=O)OC)[C@]2(O)[C@H](C(=O)OC)[C@H]1C[C@@H](c1ccccc1OC)[C@H]2C(=O)OC (stereo partly drawn)
A. 25.5 µM

Q. Give the reported TGI for CN(C)S(=O)(=O)n1ccnc1 (system: MOLT-4 leukemia).
A. > 100 µM

Q. GET /values?readout=TGI&system=MOLT-4 leukemia&item= Cn1nc(-c2ccccc2)c(C(=O)/C=C/c2ccccc2)c(N2CCCCC2)c1=O
A. > 100 µM

Q. Can you look up TGI on MOLT-4 leukemia for Cc1cc(N2CCOCC2)nc(N(CCCNc2ccnc3cc(Cl)ccc23)Cc2ccc3c(c2)OCO3)n1 ?
A. 2.97 µM

Q. For the record COc1cccc2c3cccc(OC)c3c3[nH]cnc3c12 , what value of TGI is listed for MOLT-4 leukemia?
A. 6.27 µM

Q. // lookup TGI | system=MOLT-4 leukemia | key= COC(=O)C1=C2C3=C(C(=O)c4ccccc4C3=O)N(Cc3ccccc3)C2(OC(C)=O)C=CC1=O (stereo not drawn)
A. > 100 µM

Q. Give MOLT-4 leukemia TGI for COc1ccc(Cc2cc(OC)c(OC)c(OC)c2)cc1O
A. > 100 µM

Q. Query for MOLT-4 leukemia: what TGI does the record show for C=CC1(c2ccc(Cl)c(Cl)c2)OCCO1 ?
A. > 100 µM

Q. Record lookup: for MOLT-4 leukemia, what TGI belongs to Cn1c(=O)c2[nH]c(/N=N\n3ccc4ccccc43)nc2n(C)c1=O ?
A. > 100 µM

Q. Quick check: TGI on MOLT-4 leukemia, item CCOC(=O)c1c(N2CCOCC2)[nH]c(=O)c(C(c2c(O)c(C(=O)OCC)c(N3CCOCC3)[nH]c2=O)C(C)C)c1O ?
A. > 100 µM

Q. Identify the measured TGI of S=c1cn[nH]c2ccc(Br)cc12 for MOLT-4 leukemia.
A. > 100 µM

Q. Please state recorded TGI (tested on MOLT-4 leukemia) of CCCCN(CCCC)c1cc(C(=O)CCCCCN)c2ccccc2n1
A. 5.47 µM

Q. What measured TGI is associated with CCOC(=O)C(C)OC(=O)c1ccc(C)cc1 (stereo not drawn) on MOLT-4 leukemia?
A. > 100 µM

Q. Return TGI measured with MOLT-4 leukemia given this molecule: COc1ccc(Cc2nc3cc(Cl)ccc3o2)cc1
A. > 100 µM

Q. Give TGI (MOLT-4 leukemia) of the following molecule: COc1cccc(C2=NN(C(C)=O)C(c3cc(OC)c(OC)c(OC)c3)C2)c1 (stereo not drawn)
A. > 100 µM

Q. Lab note: need TGI with MOLT-4 leukemia for entry Cc1nc2ccc(N=Nc3c(O)ccc4ccccc34)cc2[nH]1 , please look it up.
A. 66.2 µM

Q. Request: TGI, test system MOLT-4 leukemia, entry Cc1ccc(/C=C/C(=O)c2sc(C(N)=S)nc2C)cc1
A. > 100 µM

Q. What reported TGI corresponds to Fc1cc(C2=C[C@H](c3ccc4c(c3)OCO4)NC(=S)N2)c(Cl)cc1Cl on MOLT-4 leukemia?
A. > 100 µM

Q. Form field: TGI recorded for CC(C)=C1C(=O)C[C@]2(C)C/C=C(\C)CC/C=C(\C)CC[C@@H]12 with MOLT-4 leukemia (enter value)
A. 18.2 µM

Q. Under MOLT-4 leukemia: TGI value of CC(=O)c1cc2c3c(c1)c1cc4c(cc1c(=O)n3CC2)OCO4 ?
A. 9.92 µM

Q. Could you share what TGI was measured for COc1ccc(NC(=O)CSc2nnc(Cc3ccccc3)o2)cc1 , tested on MOLT-4 leukemia?
A. > 100 µM

Q. Entry Clc1ccc(-c2nc(-c3c[nH]c4ncccc34)cs2)cc1 , system MOLT-4 leukemia: what TGI was measured?
A. > 100 µM

Q. Provide the documented TGI with MOLT-4 leukemia as the system for O=C(O)C(F)(OC(F)(F)C(F)(F)C(F)(F)F)C(F)(F)F (stereo not drawn)
A. > 100 µM

Q. Provide value of TGI for this record tested with MOLT-4 leukemia: O=C(Nc1cccc(-n2cc(-c3ccncc3)c(-c3cc(O)cc(Cl)c3)n2)c1)Nc1ccc(Cl)c(Cl)c1
A. 5.16 µM

Q. So what TGI did Nc1ccc(-c2nc3cc(F)ccc3s2)cc1Br get with MOLT-4 leukemia?
A. > 100 µM

Q. Value wanted: TGI (MOLT-4 leukemia) of entry CC(=O)NC(ON1C(=O)COc2ccccc21)C(Cl)(Cl)Cl (stereo not drawn)
A. > 100 µM

Q. Request body: readout TGI, system MOLT-4 leukemia, query CC(=O)OC[C@@]12CC[C@H]3C(C)(C)CCC[C@]3(C)[C@H]1C[C@@H](C1=CC(=O)O[C@H]1O)O2 . Return the value.
A. 6.23 µM
